assay: Human HepG2 cell viability assay in 384 well format; format: toxicity, cell-based; design: dose 125 nL, time 70.5 hour; concentration not given beside the values; details: HepG2 cells, read-out: Inhibition
Exercise: for every item that follows, state its recorded cytotoxicity at 70.5 h.
Reply with just the number (in %).

input: Any idea what cytotoxicity at 70.5 h was measured for COc1ccccc1CC(C)(C)NC(=O)CC(F)(F)F ?
output: -11.8

input: Entry to check: COc1cccc(CN(C)C(=O)c2ccc(NC(C)=O)s2)c1OC
output: -62.7

input: Also CC(=O)N1CCN(C(=O)CNc2ccc3sccc3c2)CC1 , if possible.
output: -4.15

input: Now try CCS(=O)(=O)N1CCN(C(=O)c2cnc3[nH]nc(C)c3c2)CC1 .
output: -5.38

input: Follow-up item: COc1cccc(-c2ncc(CN3CC[C@H](CO)[C@@H](O)C3)s2)c1
output: -20.8

input: Lookup Cc1csc(N2CCN(CC(=O)NC3CCOCC3)CC2C)n1 (stereo not drawn)
output: -1.39

input: Okay, and O=S(=O)(NCCc1cn2ccccc2n1)N1CCOCC1 ?
output: -7.24

input: Ok, now Cc1ccc2cc(C(=O)N3CCN(C(=O)N(C)C)CC3)ccc2n1
output: -2.65

input: Same thing, different molecule: CCCOCC1CCN(C(=O)c2cnc(-c3cccnc3)nc2O)C1 (stereo not drawn)
output: -6.25

input: Try CC(NC(=O)NCCCN1CCCC1)c1nncn1C (stereo not drawn) next.
output: -7.79

input: Queued: CN(C)C(=O)CN1C(=O)CCC12CCN(Cc1cccn1C)CC2
output: 0.746

input: What do you have for O=C(C1=CCCC1)N1C[C@H]2CCC[C@@]2(COCc2ccncc2)C1 ?
output: 3.16

input: Another molecule to look at: CS(=O)(=O)N1C[C@@H](C(=O)Nc2cnccn2)C[C@H]2OCC[C@H]21
output: -7.68

input: Same lookup for Cc1noc(CN(C)C(=O)c2n[nH]c(N)c2-c2ccccc2)n1 , please.
output: 2.44

input: Cool, now NCCC(=O)N1CCC2(CC1)CN(C(=O)c1ccc(Cl)cc1)CCO2
output: -12.1

input: Same again, this time with c1ccc2c(c1)CCC21CN(CCc2ccncc2)CCO1 (stereo not drawn)
output: -4.57

input: // repeat for CCn1c(CC2CCN(S(=O)(=O)Cc3ccccc3)CC2)nn(C)c1=O and report
output: -9.61

input: Same question, c1ncn(CC2CN(Cc3csc(C4CCCC4)n3)CCO2)n1 (stereo not drawn) this time
output: -7.39

input: Queued: O=C(Nc1ccc(-c2ccccc2)cn1)C1CCN(C(=O)C2CC2)CC1
output: -1.82

input: // next record COc1ccc(CNCCc2cc(F)cc3c2OCOC3)c(OC)c1
output: 25.5

input: Moving on to the next molecule: CC(=O)N1C[C@@H]2CC[C@H](C1)N(C(=O)CCc1n[nH]c3c1CCCC3)C2
output: 1.78

input: Consider next the molecule Cc1cnc2n(c1=O)C(CC(=O)NCc1ccc(Cl)cc1)CS2 (stereo not drawn) in the same way.
output: -5.3

input: Now give it for O=C(N[C@@H]1CCNC[C@H]1O)c1ccc(F)c(F)c1 too.
output: -5.14

input: Do the same for CN1CC(=O)N(c2ccccc2)CC12CCN(CCO)C2 (stereo not drawn) please
output: 6.4

input: Can you check O=C(NCC1CCCCC1)NC1CCCc2c1cnn2CCO (stereo not drawn) next?
output: -7.67

input: Okay, and Cc1cc(NCc2nnc3n2CCC3)n2nc(C)c(C)c2n1 ?
output: -12.3

input: And COCCN(C)CC(=O)N1CCCC2(CCC(=O)N(CC3CC3)C2)C1 (stereo not drawn) ?
output: -27.5

input: Same read-out for CC(NC(=O)NCCNc1cccc(F)c1C#N)c1nccs1 (stereo not drawn) ?
output: -2.26

input: Cool, now Cc1ccsc1CNC(=O)c1ccc(N2CCOC2=O)cc1
output: -7.71

input: Try this molecule too: CCc1n[nH]c(C2CN(C(=O)c3ccsc3)CCO2)n1 (stereo not drawn)
output: -9.96

input: Then this molecule: CN(C)C1CCCN(C(=O)NCc2ccccc2-n2cccn2)C1 (stereo not drawn)
output: 10.5

input: How about this molecule: CCc1nsc(NC2CC(=O)N(C3CC3)C2)n1 (stereo not drawn)
output: -0.811

input: Request: COc1ncccc1CNC1CCc2c(ccc(=O)n2C)C1 (stereo not drawn)
output: -1.32

input: Also Cn1ccc(C(=O)NCc2ccc(N3CCCC3)nc2)cc1=O ?
output: -5.51

input: Also need CC(=O)NCCNC(=O)c1cccc(Cn2nc(C)cc2C)c1 , thanks.
output: -1.57

input: COCc1noc(Cn2ccc3ncccc3c2=O)n1 , same question.
output: -7.25

input: Another: COc1ccc(C2=Nn3c(CCCN)nnc3-c3ccccc3C2)cc1
output: 4.99

input: Moving on to the next molecule: Cc1ccc(SC2CCCC2)c(C(=O)NCc2n[nH]c(=O)[nH]2)c1
output: -11.2

input: Next molecule up: COC(=O)CN1CC2(CCNCC2)COc2ccccc2S1(=O)=O
output: 6.67

input: Now the same for COCc1csc(NC(=O)NCc2ccc(C)s2)n1
output: 1.09

input: Request: CCC(CC)CS(=O)(=O)NC(=O)C1CCCC1
output: 26.6

input: Now consider CC1CCCN(C(=O)CNC(=O)c2ccoc2)C1 (stereo not drawn) .
output: 49.9

input: Same for CCC(=O)N1CCCN(c2cncc(-n3nc(C)cc3C)n2)CC1
output: -4.7

input: O=C(NC1(c2nnn(CCO)n2)CCCC1)c1ccccc1 ?
output: -1.16

input: Do the same for COc1c(C)cnc(CN2CCC(N(C)C(=O)C(C)OC)CC2)c1C (stereo not drawn) please
output: 7.6

input: And the next one, CS(=O)(=O)NCCN1CCCC1c1noc(C2CC2)n1 (stereo not drawn) ?
output: 19.5

input: # repeat for O=C(O)Cn1ccc2c(Cl)cccc21
output: -1.23

input: Next up: Cc1cnc(N2CCC3(CCN(Cc4csc(C)n4)C3=O)C2)nc1 (stereo not drawn)
output: -5.87
